Quick reference for mortality at 96 h, 17 ppm among some compounds
- procedure.summary: Toxicity against Oreochromis sp. under laboratory conditions assessed as mortality at 17 ppm measured after 96 hr
- Assay type: organism-based
- condition.description: in vivo

smiles.input | mortality at 96 h, 17 ppm [%]
CC1(C)CC[C@]2(C(=O)O)CC[C@]3(C)C(=CC[C@@H]4[C@@]5(C)CC[C@H](O)C(C)(C)[C@@H]5CC[C@]43C)[C@@H]2C1 | 0
CC1(C)CC[C@]2(C(=O)O)CC[C@]3(C)C(=CC[C@@H]4[C@@]5(C)CC[C@H](O)[C@@](C)(CO)[C@@H]5CC[C@]43C)[C@@H]2C1 | 0

* * *

- procedure.summary: Toxicity against Carassius auratus under laboratory conditions assessed as mortality at 40 ppm measured after 96 hr
- Type: organism-based
- condition.description: in vivo
Below, each entry is listed with its recorded mortality at 96 h, 40 ppm.
assay.metric: mortality at 96 h, 40 ppm (%)

smiles.input | unit.abbreviation | endpoint.result
CC1(C)CC[C@]2(C(=O)O)CC[C@]3(C)C(=CC[C@@H]4[C@@]5(C)CC[C@H](O)[C@@](C)(CO)[C@@H]5CC[C@]43C)[C@@H]2C1 | % | 0
CC1(C)CC[C@]2(C(=O)O)CC[C@]3(C)C(=CC[C@@H]4[C@@]5(C)CC[C@H](O)C(C)(C)[C@@H]5CC[C@]43C)[C@@H]2C1 | % | 0

* * *

Measured mortality at 96 h, 33 ppm values are reported for all entries that follow.
- procedure.summary: Toxicity against Oreochromis sp. under laboratory conditions assessed as mortality at 33 ppm measured after 96 hr
- Assay type: organism-based
- condition.description: in vivo

smiles.input | mortality at 96 h, 33 ppm [%]
CC1(C)CC[C@]2(C(=O)O)CC[C@]3(C)C(=CC[C@@H]4[C@@]5(C)CC[C@H](O)C(C)(C)[C@@H]5CC[C@]43C)[C@@H]2C1 | 0
CC1(C)CC[C@]2(C(=O)O)CC[C@]3(C)C(=CC[C@@H]4[C@@]5(C)CC[C@H](O)[C@@](C)(CO)[C@@H]5CC[C@]43C)[C@@H]2C1 | 0

* * *

Measured mortality at 24 h, 5 ppm of individual entries
- procedure.summary: Toxicity against Oreochromis sp. under laboratory conditions assessed as mortality at 5 ppm measured after 24 hr
- Format: organism-based
- condition.description: in vivo
assay.metric: mortality at 24 h, 5 ppm (%)

smiles.input | assay.metric | endpoint.result
CC1(C)CC[C@]2(C(=O)O)CC[C@]3(C)C(=CC[C@@H]4[C@@]5(C)CC[C@H](O)[C@@](C)(CO)[C@@H]5CC[C@]43C)[C@@H]2C1 | mortality at 24 h, 5 ppm | 0
CC1(C)CC[C@]2(C(=O)O)CC[C@]3(C)C(=CC[C@@H]4[C@@]5(C)CC[C@H](O)C(C)(C)[C@@H]5CC[C@]43C)[C@@H]2C1 | mortality at 24 h, 5 ppm | 0
